molecular target: FAK FAT domain (paxillin-FAT binding) (Homo sapiens); construct: FP Buffer containing 20 μM FAT and 0.1 μM TAMRA-LD2; experiment: Competition fluorescence polarization (FP) assay, inhibition of TAMRA-LD2 binding to FAT; details: read-out: FP Ki
Positions of bridges follow the written chain, without caps; N, C: chain ends. Non-standard residues stand in square brackets, D forms with d. Residues, ends and D or L forms follow the SMILES beside them. R8 = C=CCCCCCC[C@@](C)(N)C(=O)O; S5 = C=CCCC[C@](C)(N)C(=O)O
READOUT: pKi
Schema: pKi number; meaning minus log10 of the concentration expressed in molar units.

input: Which measured pKi value corresponds to CC(=O)N[C@@H](CC(N)=O)C(=O)N[C@@H](CC(C)C)C(=O)N[C@@H](CO)C(=O)N[C@@H](CCC(=O)O)C(=O)N[C@]1(C)CCCCCCC=CCCC[C@@](C)(C(=O)N[C@@H](CC(N)=O)C(N)=O)NC(=O)[C@H](CCC(=O)O)NC(=O)[C@H](CC(C)C)NC(=O)[C@H](C)NC(=O)[C@H](C)NC(=O)[C@H](CCCNC(=N)N)NC(=O)[C@H](CC(=O)O)NC1=O [Peptide 1925, Ac-NLSER8DRAALES5N-NH2] (Ac-NLSE[R8]DRAALE[S5]N-NH2; staple 5-12) ?
output: 3.31

---

Target: FAK FAT domain (biotinylated Avitag-FAT protein) (Homo sapiens)
Construct: biotinylated Avitag-FAT protein was diluted in running buffer
Sequence (Q05397 914-1045 limits assumed): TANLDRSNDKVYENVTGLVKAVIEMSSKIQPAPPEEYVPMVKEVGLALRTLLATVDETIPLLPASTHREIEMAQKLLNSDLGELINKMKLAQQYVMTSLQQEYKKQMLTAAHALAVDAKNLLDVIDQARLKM
Test: Surface plasmon resonance (SPR) binding to immobilised FAT protein
Conditions: FAT protein immobilised, peptide 200 μM-0.01 μM, 1:1 binding model; read-out: SPR KD
Positions of bridges follow the written chain, without caps; N, C: chain ends. Non-standard residues stand in square brackets, D forms with d. Residues, ends and D or L forms follow the SMILES beside them. R8 = C=CCCCCCC[C@@](C)(N)C(=O)O; S5 = C=CCCC[C@](C)(N)C(=O)O
READOUT: Kd
Write the quantity with the unit trailing the number.

input: Which measured Kd value corresponds to CC(=O)N[C@@H](CC(N)=O)C(=O)N[C@@H](CC(C)C)C(=O)N[C@@H](CO)C(=O)N[C@@H](CCC(=O)O)C(=O)N[C@@]1(C)CCCC=CCCC[C@@](C)(C(=O)N[C@@H](CC(C)C)C(=O)N[C@@H](CCC(=O)O)C(=O)N[C@@H](CC(C)C)C(=O)N[C@@H](CC(N)=O)C(N)=O)NC(=O)[C@H](CC(C)C)NC(=O)[C@H](CCCNC(=N)N)NC(=O)[C@H](CC(=O)O)NC1=O [Peptide 1919, Ac-NLSES5DRLS5LELN-NH2] (Ac-NLSE[S5]DRL[S5]LELN-NH2; staple 5-9) ?
output: 68.9 µM

input: Which measured Kd value corresponds to CC(=O)N[C@@H](CC(N)=O)C(=O)N[C@]1(C)CCCCCCC=CCCC[C@@](C)(C(=O)N[C@@H](CC(C)C)C(=O)N[C@@H](CCC(=O)O)C(=O)N[C@@H](CC(C)C)C(=O)N[C@@H](CC(N)=O)C(N)=O)NC(=O)[C@H](CC(C)C)NC(=O)[C@H](CCCNC(=N)N)NC(=O)[C@H](CC(=O)O)NC(=O)[C@H](CC(C)C)NC(=O)[C@H](CCC(=O)O)NC(=O)[C@H](CO)NC1=O [Peptide 2017, Ac-NR8SELDRLS5LELN-NH2] (Ac-N[R8]SELDRL[S5]LELN-NH2; staple 2-9) ?
output: 20.3 µM

input: Which measured Kd value corresponds to CC(=O)N[C@@H](CC(N)=O)C(=O)N[C@@H](CC(C)C)C(=O)N[C@]1(C)CCCCCCC=CCCC[C@@](C)(C(=O)N[C@@H](CCC(=O)O)C(=O)N[C@@H](CC(C)C)C(=O)N[C@@H](CC(N)=O)C(N)=O)NC(=O)[C@H](CC(C)C)NC(=O)[C@H](CC(C)C)NC(=O)[C@H](CCCNC(=N)N)NC(=O)[C@H](CC(=O)O)NC(=O)[C@H](CC(C)C)NC(=O)[C@H](C)NC1=O [Peptide 2009, Ac-NLR8ALDRLLS5ELN-NH2] (Ac-NL[R8]ALDRLL[S5]ELN-NH2; staple 3-10) ?
output: 6.96 µM

input: Which measured Kd value corresponds to CC(=O)N[C@@H](CC(N)=O)C(=O)N[C@@H](CC(C)C)C(=O)N[C@]1(C)CCCCCCC=CCCC[C@@](C)(C(=O)N[C@@H](CCC(N)=O)C(=O)N[C@@H](CC(C)C)C(=O)N[C@@H](CC(N)=O)C(N)=O)NC(=O)[C@H](CC(C)C)NC(=O)[C@H](CC(C)C)NC(=O)[C@H](CCCNC(=N)N)NC(=O)[C@H](CC(=O)O)NC(=O)[C@H](CC(C)C)NC(=O)[C@H](CCC(N)=O)NC1=O [Peptide 1910, Ac-NLR8QLDRLLS5QLN-NH2] (Ac-NL[R8]QLDRLL[S5]QLN-NH2; staple 3-10) ?
output: 24.8 µM

---

Reported Kd values for a set of compounds
Biological target: FAK FAT domain (biotinylated Avitag-FAT protein) (Homo sapiens, UniProt Q05397)
Construct: biotinylated Avitag-FAT protein was diluted in running buffer
Sequence (Q05397 914-1045 limits assumed): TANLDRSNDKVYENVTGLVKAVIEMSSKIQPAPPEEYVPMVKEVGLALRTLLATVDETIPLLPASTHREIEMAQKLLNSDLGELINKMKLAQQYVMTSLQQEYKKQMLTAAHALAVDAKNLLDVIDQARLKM
Assay: Surface plasmon resonance (SPR) binding to immobilised FAT protein
Conditions: FAT protein immobilised, peptide 200 μM-0.01 μM, 1:1 binding model; read-out: SPR KD
Positions of bridges follow the written chain, without caps; N, C: chain ends. Non-standard residues stand in square brackets, D forms with d. Residues, ends and D or L forms follow the SMILES beside them. R8 = C=CCCCCCC[C@@](C)(N)C(=O)O; R5 = C=CCCC[C@@](C)(N)C(=O)O; S5 = C=CCCC[C@](C)(N)C(=O)O
Answer with a number only, understood to be in µM.

Completed entries (count: 2):
COMPOUND	MEASURE UNIT	Kd
CC(=O)N[C@@H](CC(N)=O)C(=O)N[C@@H](CC(C)C)C(=O)N[C@@H](CO)C(=O)N[C@@H](CCC(=O)O)C(=O)N[C@]1(C)CCCC=CCCC[C@@](C)(C(=O)N[C@@H](CC(C)C)C(=O)N[C@@H](CC(C)C)C(=O)N[C@@H](CCC(=O)O)C(=O)N[C@@H](CC(C)C)C(=O)N[C@@H](CC(N)=O)C(N)=O)NC(=O)[C@H](CCCNC(=N)N)NC(=O)[C@H](CC(=O)O)NC1=O [Peptide 2022, Ac-NLSER5DRS5LLELN-NH2] (Ac-NLSE[R5]DR[S5]LLELN-NH2; staple 5-8)	µM	911
CSCC[C@@H]1NC(=O)[C@H](CC(C)C)NC(=O)[C@H](CCC(=O)O)NC(=O)[C@H](CC(=O)O)NC(=O)[C@H](CC(C)C)NC(=O)[C@H](CCC(=O)O)NC(=O)[C@](C)(NC(=O)[C@@H](NC(=O)[C@H](C)NC(=O)[C@H](CO)NC(C)=O)[C@@H](C)O)CCCCCCC=CCCC[C@@](C)(C(=O)N[C@@H](CO)C(=O)N[C@@H](CC(C)C)C(=O)N[C@@H](CO)C(=O)N[C@@H](CC(=O)O)C(N)=O)NC1=O [Peptide 1916, Ac-SATR8ELDELMS5SLSD-NH2] (Ac-SAT[R8]ELDELM[S5]SLSD-NH2; staple 4-11)	µM	32.3

input: Recorded Kd for CC(=O)N[C@@H](CC(=O)O)C(=O)N[C@@H](CC(C)C)C(=O)N[C@]1(C)CCCCCCC=CCCC[C@@](C)(C(=O)N[C@@H](CCC(=O)O)C(=O)N[C@@H](CC(C)C)C(=O)N[C@@H](CC(=O)O)C(N)=O)NC(=O)[C@H](CC(C)C)NC(=O)[C@H](CC(C)C)NC(=O)[C@H](CCCNC(=N)N)NC(=O)[C@H](CC(=O)O)NC(=O)[C@H](CC(C)C)NC(=O)[C@H](CCC(=O)O)NC1=O [Peptide 1913, Ac-DLR8ELDRLLS5ELD-NH2] (Ac-DL[R8]ELDRLL[S5]ELD-NH2; staple 3-10) with FAK FAT domain (biotinylated Avitag-FAT protein) (Homo sapiens, UniProt Q05397), please?
output: 13.7

input: Recorded Kd for CC(=O)N[C@@H](CC(N)=O)C(=O)N[C@@H](CC(C)C)C(=O)N[C@@H](CO)C(=O)N[C@@H](CCC(=O)O)C(=O)N[C@]1(C)CCCCCCC=CCCC[C@@](C)(C(=O)N[C@@H](CC(N)=O)C(N)=O)NC(=O)[C@H](CCC(=O)O)NC(=O)[C@H](CC(C)C)NC(=O)[C@H](CC(C)C)NC(=O)[C@H](CC(C)C)NC(=O)[C@H](CCCNC(=N)N)NC(=O)[C@H](CC(=O)O)NC1=O [Peptide 1914, Ac-NLSER8DRLLLES5N-NH2] (Ac-NLSE[R8]DRLLLE[S5]N-NH2; staple 5-12) with FAK FAT domain (biotinylated Avitag-FAT protein) (Homo sapiens, UniProt Q05397), please?
output: 64.3

input: Recorded Kd for CC(=O)N[C@@H](CO)C(=O)N[C@@H](C)C(=O)N[C@H](C(=O)N[C@@H](CCCNC(=N)N)C(=O)N[C@@H](CCC(=O)O)C(=O)N[C@@]1(C)CCCC=CCCC[C@@](C)(C(=O)N[C@@H](C)C(=O)N[C@@H](CO)C(=O)N[C@@H](CC(C)C)C(=O)N[C@@H](CO)C(=O)N[C@@H](CC(=O)O)C(N)=O)NC(=O)[C@H](CC(C)C)NC(=O)[C@H](CCC(=O)O)NC(=O)[C@H](CC(=O)O)NC1=O)[C@@H](C)O [Peptide 1917, Ac-SATRES5DELS5ASLSD-NH2] (Ac-SATRE[S5]DEL[S5]ASLSD-NH2; staple 6-10) with FAK FAT domain (biotinylated Avitag-FAT protein) (Homo sapiens, UniProt Q05397), please?
output: 4.9

input: Recorded Kd for CC(=O)N[C@@H](CC(N)=O)C(=O)N[C@@H](CC(C)C)C(=O)N[C@]1(C)CCCCCCC=CCCC[C@@](C)(C(=O)N[C@@H](CCC(=O)O)C(=O)N[C@@H](CC(C)C)C(=O)N[C@@H](CC(N)=O)C(N)=O)NC(=O)[C@H](Cc2c[nH]c3ccccc23)NC(=O)[C@H](CC(C)C)NC(=O)[C@H](CCCNC(=N)N)NC(=O)[C@H](CC(=O)O)NC(=O)[C@H](CC(C)C)NC(=O)[C@H](CCC(=O)O)NC1=O [Peptide 2007, Ac-NLR8ELDRLWS5ELN-NH2] (Ac-NL[R8]ELDRLW[S5]ELN-NH2; staple 3-10) with FAK FAT domain (biotinylated Avitag-FAT protein) (Homo sapiens, UniProt Q05397), please?
output: 73.1

Data credit: patent US20260265304A1
